# Tested on: RAW-Dual (murine macrophage reporter line)
# method_notes: NF-kB reporter (SEAP) activity fold change vs agonist alone; higher = enhanced NF-kB activity
# condition_notes: modulator concentration 10 µM; agonist: MPLA […]
Use 1 (yes) when the recorded NF-kB reporter is no lower than 1; use 0 (no) when it is lower.

Entry COc1ccc(-c2csc(NC(=O)CCc3ccccc3)c2C(=O)O)cc1 : is its NF-kB reporter no less than 1?
1 (yes)

Entry C=CCNC1=C2C[C@@H](C)C[C@H](OC)[C@H](O)[C@@H](C)/C=C(\C)[C@H](OC(N)=O)[C@@H](OC)/C=C\C=C(/C)C(=O)NC(=CC1=O)C2=O : is its NF-kB reporter no less than 1?
0 (no)

Entry COC(CNS(=O)(=O)c1ccccc1Br)c1ccc(Cl)s1 (stereo not given) : is its NF-kB reporter no less than 1?
1 (yes)

Entry O=c1ccc2cc(O)c(O)cc2o1 : is its NF-kB reporter no less than 1?
1 (yes)

Entry O=C(NN=Cc1c(O)ccc2ccccc12)c1ccccc1 : is its NF-kB reporter no less than 1?
1 (yes)
